measured on: UniProt:P08684
Sequence (P08684 whole entry): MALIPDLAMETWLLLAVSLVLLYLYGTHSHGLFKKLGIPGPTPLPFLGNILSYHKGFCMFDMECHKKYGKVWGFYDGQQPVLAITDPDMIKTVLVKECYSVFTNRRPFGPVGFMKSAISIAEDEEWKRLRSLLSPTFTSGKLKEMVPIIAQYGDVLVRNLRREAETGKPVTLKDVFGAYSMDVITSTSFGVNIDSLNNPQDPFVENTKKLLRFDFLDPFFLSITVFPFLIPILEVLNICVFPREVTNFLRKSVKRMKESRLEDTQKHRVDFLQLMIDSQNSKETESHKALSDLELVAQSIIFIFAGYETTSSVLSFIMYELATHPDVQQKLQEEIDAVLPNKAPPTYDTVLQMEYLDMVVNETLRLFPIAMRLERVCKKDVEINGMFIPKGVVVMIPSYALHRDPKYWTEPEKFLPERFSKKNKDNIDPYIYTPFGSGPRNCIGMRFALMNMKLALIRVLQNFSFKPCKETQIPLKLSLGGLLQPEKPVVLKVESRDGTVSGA
pIC50: −log10 of the molar value.
metric: pIC50

Jot down pIC50 (UniProt:P08684) of C[C@@H](O)[C@H](NC(=O)c1ccc(C#Cc2ccc(/C=N/N3CCCC3)cc2)cc1)C(=O)NO .
< 4.52

---

method: Metabolic stability in human liver microsomes assessed as half life at 1 uM preincubated for 5 mins followed by NADPH addition and measured after 5 to 60 mins by LC-MS analysis
Type: ADME, Microsome
cond: liver microsomes, time 10-65 min
metric: half-life at 1 µM (h)
Enter your answer as a number in h; do not include the unit.

1. C[C@@H](O)[C@H](NC(=O)c1ccc(C#Cc2ccc(/C=N/N3CCOCC3)cc2)cc1)C(=O)NO
4.98
2. C[C@@H](O)[C@H](NC(=O)c1ccc(C#Cc2ccc(/C=N/N3CCN(C(=O)C(C)(C)C)CC3)cc2)cc1)C(=O)NO
1.37
3. C[C@@H](O)[C@H](NC(=O)c1ccc(C#Cc2ccc(CN3CCOCC3)cc2)cc1)C(=O)NO
16.8
4. C[C@@H](O)[C@H](NC(=O)c1ccc(C#Cc2ccc(/C=N/N3CCN(C(=O)C4CC4)CC3)cc2)cc1)C(=O)NO
4.9

Read the next record carefully.
// Input: CCC(=O)N1CCN(/N=C/c2ccc(C#Cc3ccc(C(=O)N[C@H](C(=O)NO)[C@@H](C)O)cc3)cc2)CC1 . Output its half-life at 1 µM only.
5.15

---

method: Plasma protein binding in mouse assessed as drug recovery at 1 uM incubated for 6 hrs by LC-MS/MS analysis
Type: ADME, cell-free
cond: read-out: Drug recovery
metric: recovery at 6 h, 1 µM (%)
Enter your answer as a number in %; do not include the unit.

1. C[C@@H](O)[C@H](NC(=O)c1ccc(C#Cc2ccc(/C=N/N3CCCC3)cc2)cc1)C(=O)NO
110

// Input: C[C@@H](O)[C@H](NC(=O)c1ccc(C#Cc2ccc(CN3CCOCC3)cc2)cc1)C(=O)NO . Output its recovery at 6 h, 1 µM only.
98.6

---

Reported half-life at 1 µM values for a set of compounds
method: Metabolic stability in rat liver microsomes assessed as half life at 1 uM preincubated for 5 mins followed by NADPH addition and measured after 5 to 60 mins by LC-MS analysis
Format: ADME, Microsome
cond: liver microsomes, time 10-65 min
Enter your answer as a number in h; do not include the unit.

Example entries and their recorded answers appear below.
1. C[C@@H](O)[C@H](NC(=O)c1ccc(C#Cc2ccc(/C=N/N3CCOCC3)cc2)cc1)C(=O)NO
7.9
2. C[C@@H](O)[C@H](NC(=O)c1ccc(C#Cc2ccc(/C=N/N3CCN(C(=O)C4CC4)CC3)cc2)cc1)C(=O)NO
4.58
3. C[C@@H](O)[C@H](NC(=O)c1ccc(C#Cc2ccc(CN3CCOCC3)cc2)cc1)C(=O)NO
0.362
4. CCC(=O)N1CCN(/N=C/c2ccc(C#Cc3ccc(C(=O)N[C@H](C(=O)NO)[C@@H](C)O)cc3)cc2)CC1
3.5

Read the next record carefully.
// Input: C[C@@H](O)[C@H](NC(=O)c1ccc(C#Cc2ccc(/C=N/N3CCN(C(=O)C(C)(C)C)CC3)cc2)cc1)C(=O)NO . Output its half-life at 1 µM only.
1.48

---

Reported MIC values for a set of compounds
Test system: Klebsiella pneumoniae
method: Antibacterial activity against Klebsiella pneumoniae clinical isolate KPN+22-1 assessed as reduction in bacterial growth measured after 18 to 24 hrs by CLSI protocol based method
Type: functional
cond: time 18-24 hrs
Enter your answer as a number in mg/L; do not include the unit.

Example entries and their recorded answers appear below.
1) CC(=O)N1CCN(/N=C/c2ccc(C#Cc3ccc(C(=O)N[C@H](C(=O)NO)[C@@H](C)O)cc3)cc2)CC1
2
2) C[C@@H](O)[C@H](NC(=O)c1ccc(C#Cc2ccc(/C=N/N3CCOCC3)nc2)cc1)C(=O)NO
16
3) C[C@@H](O)[C@H](NC(=O)c1ccc(C#Cc2ccc(/C=N/N3CCSCC3)cc2)cc1)C(=O)NO
1
4) C[C@@H](O)[C@H](NC(=O)c1ccc(C#Cc2ccc(/C=N/N3CCN(C(=O)OC(C)(C)C)CC3)cc2)cc1)C(=O)NO
8
5) C[C@@H](O)[C@H](NC(=O)c1ccc(C#Cc2ccc(/C=N/N3CCOCC3)cc2)cc1)C(=O)NO
1
6) C[C@@H](O)[C@H](NC(=O)c1ccc(C#Cc2ccc(/C=N/N3CCN(C(=O)C(C)(C)C)CC3)cc2)cc1)C(=O)NO
8

// Input: C[C@@H](O)[C@H](NC(=O)c1ccc(C#Cc2ccc(/C=N/N3CCCCC3)cc2)cc1)C(=O)NO . Output its MIC only.
1

// Input: C[C@@H](O)[C@H](NC(=O)c1ccc(C#Cc2ccc(/C=N/N3CCCCC3)nc2)cc1)C(=O)NO . Output its MIC only.
8

---

Reported CLint scaled values for a set of compounds
method: Intrinsic clearance in rat
Type: ADME
cond: read-out: CLH
Enter your answer as a number in mL/min/kg; do not include the unit.

// Input: C[C@@H](O)[C@H](NC(=O)c1ccc(C#Cc2ccc(/C=N/N3CCN(C(=O)C4CC4)CC3)cc2)cc1)C(=O)NO . Output its CLint scaled only.
9.09

// Input: CCC(=O)N1CCN(/N=C/c2ccc(C#Cc3ccc(C(=O)N[C@H](C(=O)NO)[C@@H](C)O)cc3)cc2)CC1 . Output its CLint scaled only.
12.1

// Input: C[C@@H](O)[C@H](NC(=O)c1ccc(C#Cc2ccc(/C=N/N3CCN(C(=O)C(C)(C)C)CC3)cc2)cc1)C(=O)NO . Output its CLint scaled only.
28.1

// Input: C[C@@H](O)[C@H](NC(=O)c1ccc(C#Cc2ccc(/C=N/N3CCCC3)cc2)cc1)C(=O)NO . Output its CLint scaled only.
8.59

// Input: C[C@@H](O)[C@H](NC(=O)c1ccc(C#Cc2ccc(CN3CCOCC3)cc2)cc1)C(=O)NO . Output its CLint scaled only.
115

// Input: C[C@@H](O)[C@H](NC(=O)c1ccc(C#Cc2ccc(/C=N/N3CCOCC3)cc2)cc1)C(=O)NO . Output its CLint scaled only.
8.15

---

method: Stability in human plasma at 1 uM incubated for 6 hrs by LC-MS/MS analysis
Assay type: ADME, cell-free
cond: read-out: Stability
metric: remaining at 6 h, 1 µM
Answer as a quantity: numeral, then unit.

1) C[C@@H](O)[C@H](NC(=O)c1ccc(C#Cc2ccc(CN3CCOCC3)cc2)cc1)C(=O)NO
106%

Read the next record carefully.
// Input: C[C@@H](O)[C@H](NC(=O)c1ccc(C#Cc2ccc(/C=N/N3CCCC3)cc2)cc1)C(=O)NO . Output its remaining at 6 h, 1 µM only.
113%

---

method: Half life in male Sprague-Dawley rat at 1 mg/kg, iv measured upto 24 hrs by LC-MS analysis
Type: ADME, organism-based
cond: in vivo
metric: half-life (min)
Enter your answer as a number in min; do not include the unit.

1) C[C@@H](O)[C@H](NC(=O)c1ccc(C#Cc2ccc(CN3CCOCC3)cc2)cc1)C(=O)NO
17.4

Read the next record carefully.
// Input: C[C@@H](O)[C@H](NC(=O)c1ccc(C#Cc2ccc(/C=N/N3CCCC3)cc2)cc1)C(=O)NO . Output its half-life only.
65.4

---

method: Intrinsic clearance in mouse
Format: ADME, organism-based
cond: read-out: CLH
metric: log10 CLint scaled (log10 of the value in mL/min/kg)
Note the log scale: values are log10 of CLint scaled expressed in mL/min/kg.

1) C[C@@H](O)[C@H](NC(=O)c1ccc(C#Cc2ccc(/C=N/N3CCN(C(=O)C4CC4)CC3)cc2)cc1)C(=O)NO
1.68
2) C[C@@H](O)[C@H](NC(=O)c1ccc(C#Cc2ccc(/C=N/N3CCOCC3)cc2)cc1)C(=O)NO
0.85
3) C[C@@H](O)[C@H](NC(=O)c1ccc(C#Cc2ccc(/C=N/N3CCN(C(=O)C(C)(C)C)CC3)cc2)cc1)C(=O)NO
1.56
4) C[C@@H](O)[C@H](NC(=O)c1ccc(C#Cc2ccc(CN3CCOCC3)cc2)cc1)C(=O)NO
1.87
5) C[C@@H](O)[C@H](NC(=O)c1ccc(C#Cc2ccc(/C=N/N3CCCC3)cc2)cc1)C(=O)NO
1.53

Read the next record carefully.
// Input: CCC(=O)N1CCN(/N=C/c2ccc(C#Cc3ccc(C(=O)N[C@H](C(=O)NO)[C@@H](C)O)cc3)cc2)CC1 . Output its log10 CLint scaled only.
1.45

---

Reported MIC values for a set of molecules
System: Klebsiella pneumoniae
method: Antibacterial activity against Klebsiella pneumoniae ATCC700603 assessed as reduction in bacterial growth measured after 18 to 24 hrs by CLSI protocol based method
Format: functional
cond: time 18-24 hrs
Enter your answer as a number in µg/mL; do not include the unit.

Example entries and their recorded answers appear below.
1. CCN1CCN(/N=C/c2ccc(C#Cc3ccc(C(=O)N[C@H](C(=O)NO)[C@@H](C)O)cc3)cc2)CC1
16
2. CCOC(=O)N1CCN(/N=C/c2ccc(C#Cc3ccc(C(=O)N[C@H](C(=O)NO)[C@@H](C)O)cc3)cc2)CC1
16
3. C[C@@H](O)[C@H](NC(=O)c1ccc(C#Cc2ccc(/C=N/N3CCCCC3)cc2)cc1)C(=O)NO
32
4. C[C@@H](O)[C@H](NC(=O)c1ccc(C#Cc2ccc(CN3CCOCC3)cc2)cc1)C(=O)NO
8

// Input: C[C@@H](O)[C@H](NC(=O)c1ccc(C#Cc2ccc(/C=N/N3CCCC3)cc2)cc1)C(=O)NO . Output its MIC only.
8

// Input: C[C@@H](O)[C@H](NC(=O)c1ccc(C#Cc2ccc(/C=N/N3CCN(C(=O)N(C)C)CC3)cc2)cc1)C(=O)NO . Output its MIC only.
16

// Input: CCC(=O)N1CCN(/N=C/c2ccc(C#Cc3ccc(C(=O)N[C@H](C(=O)NO)[C@@H](C)O)cc3)cc2)CC1 . Output its MIC only.
16

// Input: C#CCN1CCN(/N=C/c2ccc(C#Cc3ccc(C(=O)N[C@H](C(=O)NO)[C@@H](C)O)cc3)cc2)CC1 . Output its MIC only.
32

// data source = ChEMBL document CHEMBL6127085
